assay system: T1, CD137-hisFc fusion protein (Sino Biological Cat 10041-H03H) (human, UniProt Q07011 24-186)
T1 construct: Bought; also called recombinant human CD137 (fused with human Fc and His tag); not shown: His tag and human Fc
assay overview: BLI Octet, Fab;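 also: fab fragments expressed in E. coli, binding to human CD137 measured on Octet RED96, kinetics fitted with a 1:1 Langmuir model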
property measured: koff (s⁻¹)
Record the value in s⁻¹, omitting the unit from your answer.

Q: Consider the binder shown here: Fab 5413 (Fab, V domains shown, Fab from E. coli; also called VH38/VL38) VH: EVQLVESGGGLVQPGGSLRLSCAASGFSLSTGGVAVGWIRQAPGKGLEWLALIDWDGDKSYSTSLKSRLTISRDNSKNTLYLQLNSLRAEDTAVYYCAREGSTAVVGDWFDYWGQGTLVTVSS VL: DIQLTQSPSSLSASVGDRVTITCRASQGISRYLAWYQQKPGKAPKLLIYDASNRATGIPSRFSGSGSGTDFTLTISSLQPEDFATYYCQQGYSLWTFGQGTKVEIKR What is its recorded koff?
Ans: 0.00055

Q: Consider the binder shown here: Fab 4072 (Fab, V domains shown, Fab from E. coli; also called VH2/VL2) VH: EVQLVESGGGLVQPGGSLRLSCAASGFSLSTSGVAVSWIRQAPGKGLEWIGIINPNFGDTNYAQKFQGRVTISRDNSKNTLYLQLNSLRAEDTAVYYCARDEYYGGSYYFDYWGQGTLVTVSS VL: DIQLTQSPSSLSASVGDRVTITCRASQDVRTAVAWYQQKPGKAPKLLIYDASNLETGVPSRFSGSGSGTDFTLTISSLQPEDFATYYCQQSYDWPPTFGQGTKVEIKR What is its recorded koff?
Ans: 0.0011

# next binder below
Q: Consider the binder shown here: Fab 5359 (Fab, V domains shown, Fab from E. coli; also called VH27/VL27) VH: EVQLVESGGGLVQPGGSLRLSCAASGFSLSTSGVGVGWIRQAPGKGLEWLALIDWADDKYYSPSLKSRLTISRDNSKNTLYLQLNSLRAEDTAVYYCARGGSDAVLGDWFAYWGQGTLVTVSS VL: DIQLTQSPSSLSASVGDRVTITCRASQGIGSYLAWYQQKPGKAPKLLIYDASNLETGVPSRFSGSGSGTDFTLTISSLQPEDFATYYCQQGYSIWTFGQGTKVEIKR What is its recorded koff?
Ans: 0.00033

The measured values listed here are drawn from patent US20190055314A1.
